# System: HepG2-A16-CD81
# assay.name: % inhibition of HepG2 viability (CellTiter-Glo); higher = more toxic
# experimental.parameters: 5 µM

smiles.input | target.of.assay | % inhibition of HepG2 viability, %
CC1(C)Cc2c(C#N)c(SCCc3ccccc3)nc(N3CCOCC3)c2CO1 | HepG2-A16-CD81 | -1.4
Cc1cccc(C)c1C(=O)Nc1nc(-c2ccccn2)cc2ccccc12 | HepG2-A16-CD81 | 32.4
NC[C@H]1OB(O)c2c(OCCCO)cccc21 | HepG2-A16-CD81 | -3.46
CCCCCc1ccc(C(=O)NCCn2cc(CCCCCc3cnc(N)[nH]3)nn2)cc1 | HepG2-A16-CD81 | 2.88
CC(C)Nc1nc2cc(Cl)c(Cl)cc2n1[C@H]1O[C@@H](CO)[C@H](O)[C@@H]1O | HepG2-A16-CD81 | -5.75

---

# System: Plasmodium berghei ANKA liver stage in HepG2-A16-CD81
# assay.name: % inhibition of liver stage parasite viability (luciferase); higher = more inhibition
# experimental.parameters: 5 µM; 48 h
Rule: % inhibition of liver stage parasite viability below 20% gives Fulfilled, anything at or above gives Not fulfilled.

molecule | class
CC(C)(C)c1cc(CCC(=O)N2CCC2)cc(C(C)(C)C)c1O | Not fulfilled
O=C(Nc1ccc(Cl)c(C(F)(F)F)c1)C(CCCl)C(=O)Nc1ccc(Cl)c(C(F)(F)F)c1 | Fulfilled
C[C@H](Cn1cnc2c(N)ncnc21)OCP(=O)(O)O | Fulfilled
CN(C)c1[nH]c(=O)ncc1F | Not fulfilled
O=S(=O)(NCB(O)O)c1ccc(-c2nnn[nH]2)cc1C(F)(F)F | Not fulfilled
O=C(O)/C=C/C=C/c1cccc(Oc2cc(Cl)cc(Cl)c2)c1 | Not fulfilled
Cc1cc(C)n(O)c(=O)c1 | Fulfilled
Cc1cc(O)c2c(c1)C(=O)c1c(I)c(O)c(I)c(O)c1C2=O | Fulfilled
CC(=O)Nc1cc(NS(=O)(=O)c2ccc(Cl)cc2)cc2c(Cl)n[nH]c12 | Fulfilled
FC(F)(F)Oc1ccc(Nc2ccc3cccc(Cl)c3n2)cc1 | Fulfilled
COc1ccccc1NC(=O)c1ccccc1Sc1ccc([N+](=O)[O-])cc1 | Not fulfilled
NS(=O)(=O)c1ccc(NC(=O)NC(c2ccccc2)c2ccccc2)cc1 | Fulfilled
Cc1nc2ccc(Cl)cc2c(-c2ccccc2)c1CC(=O)O | Not fulfilled
COC1CC2CCC(C)C(O)(O2)C(=O)C(=O)N2CCCCC2C(=O)OC(C(C)CC2CCC(OCCO)C(OC)C2)CC(=O)C(C)/C=C(\C)C(O)C(OC)C(=O)C(C)CC(C)/C=C/C=C/C=C/1C (stereo not given) | Fulfilled
C(=C\c1nc2ccccc2[nH]1)/c1ccc2c(c1)OCO2 | Fulfilled
CC[N+]1(C/C2=C/CCCCCC2)CCC(NC(=O)C2c3cc(Cl)ccc3Oc3ccc(Cl)cc32)CC1 (stereo not given) | Fulfilled
CC(N)C(=O)NC(CCCCN)C(=O)NC(CCCNC(=N)N)C(=O)NC(Cc1c[nH]cn1)C(=O)NC(Cc1c[nH]cn1)C(=O)NCC(=O)NC(Cc1ccc(O)cc1)C(=O)NC(CCCCN)C(=O)NC(CCCNC(=N)N)C(=O)NC(CCCCN)C(=O)NC(Cc1ccccc1)C(=O)NC(Cc1c[nH]cn1)C(N)=O (stereo not given) | Not fulfilled
Nc1nc(NC2Cc3ccc(F)cc3C2)nc(N2CCCCC2)n1 (stereo not given) | Not fulfilled
Nc1cc(N)c2nc(-c3ccccc3)c(Nc3ccc(F)cc3)nc2c1 | Not fulfilled
CCCCCCC1c2ccc(O)cc2Oc2cc(O)ccc21 | Not fulfilled

---

Listed here are molecules together with their documented % inhibition of gametocyte viability.
# Test system: Plasmodium falciparum NF54 stage IV/V gametocytes
# assay.name: % inhibition of gametocyte viability (ATP bioluminescence); higher = more inhibition
# experimental.parameters: 5 µM; 24 h
outcome.measure: % inhibition of gametocyte viability

molecule | outcome.measure | result
CC(C)(C)OC(=O)NCc1ccc(C(=O)N[C@H]2CCOC2=O)cc1 | % inhibition of gametocyte viability | < 0%
O=C(NCc1ccc(F)cc1)c1c(O)c2ncccc2[nH]c1=O | % inhibition of gametocyte viability | < 0%
CCOc1ccc(C(=O)NCCc2ccccc2)cc1 | % inhibition of gametocyte viability | < 0%
CCC(C)n1ncn(-c2ccc(N3CCN(c4ccc(OCC5COC(Cn6cncn6)(c6ccc(Cl)cc6Cl)O5)cc4)CC3)cc2)c1=O (centres undefined) | % inhibition of gametocyte viability | < 0%
O=S(=O)(Nc1ccc(O)cc1)c1cccc2cccnc12 | % inhibition of gametocyte viability | < 0%
Cn1cc(NC(=O)c2cc(NC(=O)c3ccc(/C=C/c4cnc5ccccc5c4)cc3)cn2C)cc1C(=O)NCCN1CCOCC1 | % inhibition of gametocyte viability | 15.5%
COc1cc(NCc2ccc3nc(N)nc(N)c3c2C)cc(OC)c1OC | % inhibition of gametocyte viability | < 0%
N[C@@H]1CN(c2c(F)cc3c(=O)c(C(=O)O)cn([C@@H]4C[C@@H]4F)c3c2Cl)CC12CC2 | % inhibition of gametocyte viability | < 0%
COc1ccc(-n2cnc3cc(NCc4ccco4)ccc32)cc1 | % inhibition of gametocyte viability | < 0%
CCOC(=O)N[C@@H]1CC[C@@H]2[C@@H](C1)C[C@H]1C(=O)O[C@H](C)[C@H]1[C@H]2/C=C/c1ccc(-c2cccc(F)c2)cn1 | % inhibition of gametocyte viability | 33%
COc1ccc(C2CNC(=O)C2)cc1OC1CCCC1 (centres undefined) | % inhibition of gametocyte viability | < 0%
CCc1nc(N)nc(N)c1C#CC(C)c1cc(OC)cc(-c2ccncc2)c1 (centres undefined) | % inhibition of gametocyte viability | < 0%
CNC(=O)C1O[C@@H](n2cnc3c(NCc4cccc(I)c4)nc(Cl)nc32)[C@H](O)[C@@H]1O (some centres undefined) | % inhibition of gametocyte viability | < 0%
O=C(O)/C=C/C=C/c1cccc(Oc2cc(Cl)cc(Cl)c2)c1 | % inhibition of gametocyte viability | 2.02%
CCNC(=O)Nc1cc(-c2ccccc2)c(-c2cncc(C(=O)O)c2)cn1 | % inhibition of gametocyte viability | < 0%
CCc1cc(O)c(Oc2cccnc2N)cc1F | % inhibition of gametocyte viability | < 0%
CC1(C)C[C@H]1C(=O)N/C(=C\CCCCSC[C@@H](N)C(=O)O)C(=O)O | % inhibition of gametocyte viability | < 0%
CN1c2ccc(Cl)cc2N(c2ccccc2)C(=O)c2cn(Cc3ccc(CN4CCOCC4)cc3)nc21 | % inhibition of gametocyte viability | < 0%
O=C(Nc1nnc(-c2ccc(Cl)cc2)o1)c1nc2ccccc2s1 | % inhibition of gametocyte viability | < 0%

---

Listed here are compounds together with their documented % inhibition of HepG2 viability.
# System: HepG2-A16-CD81
# assay.name: % inhibition of HepG2 viability (CellTiter-Glo); higher = more toxic
# experimental.parameters: 5 µM

compound | % inhibition of HepG2 viability
CC(C)(C)c1ccc(OCCn2nc(C(=O)O)c3ccccc3c2=O)cc1 | 1.37%
O=C(Nc1ccccc1)N(Cc1cc(Br)ccc1O)c1ccc(F)cc1 | -2.44%
COc1cc(Cc2cc(N)nc(N)n2)cc(OC)c1OC | 4.91%
O=C(O)C[C@H]1CC[C@H](c2ccc(-c3ccc(Nc4ccc(C(F)(F)F)nc4)cn3)cc2)CC1 | 4.22%
O=C(O)COc1cccc2c1CC[C@](O)(COC(=O)N(c1ccccc1)c1ccccc1)C2 | -9.51%
C(=C\c1nc2ccccc2[nH]1)/c1ccc2c(c1)OCO2 | 6.95%
C[C@@H]1O[C@@H]1P(=O)(O)O | -3.69%
Oc1cc(-c2cccc3ccccc23)[nH]n1 | 2.56%
CN(C)CC(=O)Nc1ccc2[nH]c(=O)c3ccccc3c2c1 | -2.53%
O=C(NC(=O)N1CCCc2ccccc21)c1ccc(Cl)cc1Cl | -0.619%
O=C(Nc1nnc(-c2ccccc2)o1)c1ccc(F)cc1 | 8.93%
O=c1cc(OCc2ccccc2)ccn1Cc1ccccc1 | -3.88%
OCCC#Cc1nc(-c2ccc(F)cc2)c(-c2ccncc2)n1CCCc1ccccc1 | 5.38%
CCCCc1ccc(-c2nc(C)c(C(=O)OC)s2)cc1 | 0.116%
O=C(CSc1nnc(Br)n1-c1ccc(C2CC2)c2ccccc12)Nc1ccc(C(=O)O)cc1Cl | -1.62%
OC1O[C@H](CSc2ccc(F)cc2)[C@@H](O)[C@H]1O (some centres undefined) | -4.06%
Fc1ccc2c(/C=C/c3cccnc3)c[nH]c2c1 | 0.955%
O=C1C=C(c2ccccc2)S(=O)(=O)c2ccccc21 | -4.77%
Nc1nc(NC2Cc3ccc(F)cc3C2)nc(N2CCCCC2)n1 (centres undefined) | 2.58%
O=C(c1ccc(F)cc1)N1CCN2C(=O)c3ccccc3C12c1ccccc1 (centres undefined) | -0.867%
O=C(Nc1nnc(-c2ccc(Cl)cc2)o1)c1ccc(F)cc1 | -1.68%
CC(C)(C)c1ccc(Oc2ccc(N)cc2)cc1 | -4.14%
CCc1nc(N)nc(N)c1C#CC(C)c1cc(OC)cc(-c2ccncc2)c1 (centres undefined) | 20.8%
CC(C)=CCC/C(C)=C/CNCCNC1C2CC3CC(C2)CC1C3 (centres undefined) | 17.1%
CC(C)n1cnc2c(NCc3ccccc3)nc(NCc3ccccc3)nc21 | 7.56%
CS(=O)(=O)c1ccc(Oc2ccc(Cl)cc2)cc1 | -1.85%
O=C(O)c1cc(-c2ccccc2)nc2ccccc12 | -0.148%
CCc1cc(O)c(Oc2cccnc2N)cc1F | -0.638%
COc1ccc2nc(-c3ccccc3)cc(O)c2c1 | 6.13%
CC(C)(C)c1cc(CCC(=O)N2CCC2)cc(C(C)(C)C)c1O | 0.292%
O=C1[C@H](CC[C@H](O)c2ccc(F)cc2)[C@@H](c2ccc(O)cc2)N1c1ccc(F)cc1 | -3.46%
COc1ccc(OCc2ccc(COc3c(Cl)cccc3Cl)cc2)c(Cl)c1 | -5.86%
CCc1nc(N)nc(N)c1C#CCc1ccccc1 | 5.43%
O=C(Cc1ccccc1F)Nc1nc2ccccc2[nH]1 | 7.61%
CCCCSc1nc(N)c2[nH]c(=O)c(=O)n(Cc3ccccc3)c2n1 | 4.02%
O=C(NCc1ccc(F)cc1)c1c(O)c2ncccc2[nH]c1=O | 5.33%
Clc1ccc(Cn2c(CN3CCCC3)nc3ccccc32)cc1 | 2.06%
Cc1c(N)cccc1Cn1ccc(OCCc2cccs2)cc1=O | 5.54%
Nc1nc(O)ncc1F | 0.135%
CCCCCCCCCN1C[C@@H](O)[C@H](O)[C@@H](O)[C@@H]1CO | 4.62%
Cc1cc(NS(=O)(=O)c2ccc(-c3ccc(F)cc3F)cc2)no1 | 1.14%
O=C(Cn1cnc2ccccc2c1=O)Nc1ccccc1 | -0.425%
CN(C(=O)C1(c2ccc(Cl)cc2)CCC1)c1ccccc1 | -4.47%
CNCC(=O)OCc1cccnc1N(C)C(=O)OC(C)[n+]1cnn(C[C@](O)(c2cc(F)ccc2F)[C@@H](C)c2nc(-c3ccc(C#N)cc3)cs2)c1 (some centres undefined) | 14.7%
